ASSAY_NAME: Leakage marker sodium fluorescein transport, AP to BL, Caco-2 monolayer integrity
Type: in vitro ADME
EXPERIMENTAL_CONTEXT: human, 1 mM, day 21 monolayer, read-out: Papp value AP to BL side
QUANTITY_MEASURED: Papp A→B at 1 mM

Which Papp A→B at 1 mM value is on record for O=C1OC2(c3ccc(O)cc3Oc3cc(O)ccc32)c2ccccc21 [sodium fluorescein] ?
< 1 ×10⁻⁶ cm/s

---

ASSAY_NAME: Bidirectional transport across the Caco-2 cell monolayer (LC/MS/MS)
EXPERIMENTAL_CONTEXT: human, Caco-2, Efflux ratio P BA/P AB, in A. cinnamomea extract (25 µg/mL)
QUANTITY_MEASURED: efflux ratio at 180 min, 25 µg/mL
One number for each entry.

Worked cases, answers included:
{"COMPOUND": "C=C(CC[C@@H](C)[C@H]1CC[C@H]2C3=C(C(=O)C[C@]12C)[C@@]1(C)CCC(=O)[C@@H](C)[C@@H]1CC3=O)[C@H](C)C(=O)O [compound 9, 25S-antcin B]", "QUANTITY_MEASURED": "efflux ratio at 180 min, 25 µg/mL", "MEASURED_VALUE": 1.04}
{"COMPOUND": "C=C(CC[C@@H](C)[C@H]1CC[C@H]2C3=C(C(=O)C[C@]12C)[C@@]1(C)CCC(=O)[C@@H](C)[C@@H]1C[C@@H]3O)[C@H](C)C(=O)O [compound 3, 25S-antcin C]", "QUANTITY_MEASURED": "efflux ratio at 180 min, 25 µg/mL", "MEASURED_VALUE": 0.73}
{"COMPOUND": "C=C(CC[C@@H](C)[C@H]1CC[C@H]2C3=C(C(=O)C[C@]12C)[C@@]1(C)CCC(=O)[C@@H](C)[C@@H]1CC3=O)[C@@H](C)C(=O)O [compound 10, 25R-antcin B]", "QUANTITY_MEASURED": "efflux ratio at 180 min, 25 µg/mL", "MEASURED_VALUE": 0.94}
{"COMPOUND": "C=C(CC[C@@H](C)[C@H]1CC[C@H]2C3=C(C(=O)[C@H](O)[C@]12C)[C@@]1(C)CC[C@@H](O)[C@@H](C)[C@@H]1CC3=O)[C@@H](C)C(=O)O [compound 5, 25R-antcin H]", "QUANTITY_MEASURED": "efflux ratio at 180 min, 25 µg/mL", "MEASURED_VALUE": 0.88}

Please state efflux ratio at 180 min, 25 µg/mL for every compound in the list that follows.
1. C=C(CC[C@@H](C)[C@H]1CC[C@H]2C3=C(C(=O)[C@H](O)[C@]12C)[C@@]1(C)CC[C@@H](O)[C@@H](C)[C@@H]1CC3=O)[C@H](C)C(=O)O [compound 6, 25S-antcin H]
2. C=C(CC[C@@H](C)[C@H]1CC[C@H]2C3=C(C(=O)C[C@]12C)[C@@]1(C)CCC(=O)[C@@H](C)[C@@H]1C[C@@H]3O)[C@@H](C)C(=O)O [compound 4, 25R-antcin C]

1: 0.99; 2: 0.69
